src = patent US12655116B2

# pest or weed control at 80 g/ha per record follows
System: PHBPU
test-name: Pre-emergence herbicidal action against PHBPU
Format: in vivo, Pharbitis purpurea
measurement-context: Ipomoea purpurea, 504 h, dosage 80 g/ha
# number only, unit % dropped from output

Look over these answered cases.
1. CCNC(=O)c1c(C(F)F)ccc(C(=O)Nc2nnnn2CC)c1CC	90
2. CCn1nnnc1NC(=O)c1ccc(C(F)F)c(C(=O)NC(C)C)c1Cl	100

[in] Fill in pest or weed control at 80 g/ha for record COc1c(C(=O)Nc2nnnn2C)ccc(C(F)(F)F)c1C(=O)NC1CC1
[out] 90

[in] Fill in pest or weed control at 80 g/ha for record CCNC(=O)c1c(C(F)(F)F)ccc(C(=O)Nc2nnnn2C)c1OC
[out] 80

[in] Fill in pest or weed control at 80 g/ha for record CCn1nnnc1NC(=O)c1ccc(Br)c(C(=O)NC2CC2)c1Cl
[out] 80

[in] Fill in pest or weed control at 80 g/ha for record CCCNC(=O)c1c(C(F)(F)F)ccc(C(=O)Nc2nnnn2C)c1C
[out] 80

[in] Fill in pest or weed control at 80 g/ha for record CCc1c(C(=O)Nc2nnnn2CC)ccc(C(F)F)c1C(=O)NC1CC1
[out] 90

[in] Fill in pest or weed control at 80 g/ha for record CCNC(=O)c1c(C(F)(F)F)ccc(C(=O)Nc2nnnn2C)c1CC
[out] 80

[in] Fill in pest or weed control at 80 g/ha for record CCNC(=O)c1c(C(F)(F)C(F)(F)F)ccc(C(=O)Nc2nnnn2C)c1Cl
[out] 80

----------
Tested on: SETVI
test-name: Pre-emergence herbicidal action against SETVI
Format: in vivo, Setaria viridis
measurement-context: dosage 20 g/ha
# Pre-emergence action against SETVI in % per record follows
# number only, unit % dropped from output

Look over these answered cases.
1. CCn1nnnc1NC(=O)c1ccc(C(F)(F)F)c(C(=O)NC2CCC2)c1C	80
2. Cn1nnnc1NC(=O)c1ccc(C(F)F)c(C(=O)NCC(F)F)c1Br	90

[in] Fill in Pre-emergence action against SETVI in % for record CCn1nnnc1NC(=O)c1ccc(C(F)(F)F)c(C(=O)NC)c1OC
[out] 100

[in] Fill in Pre-emergence action against SETVI in % for record CCn1nnnc1NC(=O)c1ccc(Br)c(C(=O)NCC(F)F)c1Cl
[out] 90

[in] Fill in Pre-emergence action against SETVI in % for record CCn1nnnc1NC(=O)c1ccc(C(F)(F)F)c(C(=O)NCC(F)F)c1C
[out] 100

[in] Fill in Pre-emergence action against SETVI in % for record CCNC(=O)c1c(C(F)F)ccc(C(=O)Nc2nnnn2CC)c1Br
[out] 80

[in] Fill in Pre-emergence action against SETVI in % for record Cn1nnnc1NC(=O)c1ccc(Br)c(C(=O)NCC(F)F)c1Cl
[out] 100

----------
Tested on: ALOMY
test-name: Post-emergence herbicidal action against ALOMY
Assay type: in vivo, Alopecurus myosuroides
measurement-context: Alopecurus myosuroides, 504 h, dosage 20 g/ha, visual assessment about 3 weeks after treatment vs untreated controls
Procedure: Seeds of monocotyledonous and dicotyledonous weed and crop plants are laid out in sandy loam soil in wood-fiber pots, covered with soil and cultivated in a greenhouse under good growth conditions. 2 to 3 weeks after sowing, the test plants are treated at the one-leaf stage. […]
# pest or weed control at 20 g/ha per record follows
Reply with the number and its unit after it.

[in] Fill in pest or weed control at 20 g/ha for record Cn1nnnc1NC(=O)c1ccc(Br)c(C(=O)NC2CC2)c1Br
[out] 100%

[in] Fill in pest or weed control at 20 g/ha for record CC(C)NC(=O)c1c(Br)ccc(C(=O)Nc2nnnn2C)c1Cl
[out] 90%

[in] Fill in pest or weed control at 20 g/ha for record CCc1c(C(=O)Nc2nnnn2C)ccc(C(F)(F)F)c1C(=O)NC1CC1
[out] 100%

[in] Fill in pest or weed control at 20 g/ha for record Cn1nnnc1NC(=O)c1ccc(C(F)(F)F)c(C(=O)NC2CC2)c1Br
[out] 80%

[in] Fill in pest or weed control at 20 g/ha for record CNC(=O)c1c(C(F)F)ccc(C(=O)Nc2nnnn2C)c1SC
[out] 80%
